# Tested on: SIK2;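 note: KINOMEscan kinase panel screen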
# condition context: concentration: 1 μM, replicates: in singlicate; n = 1

smiles: COc1cccc(CC(=O)N2CCc3cc(-c4cn(C)c5ncnc(N)c45)ccc32)c1
reading unit: %
%Inh: 0

smiles: CN1CCN(Cc2ccc(NC(=O)Nc3ccc(N(C)c4ccnc(Nc5ccc(CS(C)(=O)=O)cc5)n4)cc3)cc2)CC1.Cl
reading unit: %
%Inh: 15

smiles: Cl.N#CCc1ccc(Nc2nccc(Nc3ccc(Oc4ccccc4)cc3)n2)cc1
reading unit: %
%Inh: 0

smiles: CN(c1ccc2c(c1)nc(NCc1ccccc1)n2C)c1ccnc(Nc2ccc(CS(C)(=O)=O)cc2)n1.Cl
reading unit: %
%Inh: 10

smiles: COc1cccc(C2=C(Nc3cccc(O)c3)C(=O)NC2=O)c1
reading unit: %
%Inh: 3

smiles: c1ccc(Oc2ccc(Nc3ccnc4cc(-c5ccc(CN6CCCCC6)o5)ccc34)cc2)nc1
reading unit: %
%Inh: 70

smiles: Nc1ncc(-c2ccc3nccc(-c4ccncc4)c3c2)cc1S(=O)(=O)N1CCCCC1
reading unit: %
%Inh: 0

smiles: Cc1cccc(Nc2nc(N[C@H]3CCCC[C@H]3N)ncc2C(N)=O)c1.Cl
reading unit: %
%Inh: 26
